tested on: ATP; test: switch fluorescence ratio, 500 uM ATP over buffer (Cy3 cluster intensity, sum of 5 cycles each) (fold (ratio)); higher = stronger signal-on switching upon ATP binding; sequences stand for … in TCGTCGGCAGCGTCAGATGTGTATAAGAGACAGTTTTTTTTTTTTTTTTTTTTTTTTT…TC; conditions: aptamer strand: ATP DNA aptamer (quencher-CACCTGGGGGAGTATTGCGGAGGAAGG + anchor), 100 nM annealed; ATP concentration: 500 uM;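 further: ATP exposure 15 min at 22 °C before imaging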

{"sequence_code": "AAGGTTTTCG", "system": "ATP", "switch fluorescence ratio": 1.01}
{"sequence_code": "TTCATTTGGT", "system": "ATP", "switch fluorescence ratio": 0.983}
{"sequence_code": "CGAATGGAAC", "system": "ATP", "switch fluorescence ratio": 0.989}
{"sequence_code": "AGAGATGAGG", "system": "ATP", "switch fluorescence ratio": 0.974}
{"sequence_code": "TCATGGAATT", "system": "ATP", "switch fluorescence ratio": 1}
{"sequence_code": "CTGGTTGGGA", "system": "ATP", "switch fluorescence ratio": 0.992}
{"sequence_code": "TAGGTTTAAA", "system": "ATP", "switch fluorescence ratio": 0.991}
{"sequence_code": "AATGGATTGG", "system": "ATP", "switch fluorescence ratio": 0.997}
{"sequence_code": "CATTTATTGT", "system": "ATP", "switch fluorescence ratio": 0.992}
{"sequence_code": "AATACGGGG", "system": "ATP", "switch fluorescence ratio": 0.985}
{"sequence_code": "GGGTATTAGC", "system": "ATP", "switch fluorescence ratio": 0.982}
{"sequence_code": "CTCATAGGGA", "system": "ATP", "switch fluorescence ratio": 0.983}
{"sequence_code": "TGCGTGTGGG", "system": "ATP", "switch fluorescence ratio": 1.02}
{"sequence_code": "GGTCCAGTGA", "system": "ATP", "switch fluorescence ratio": 1.02}
{"sequence_code": "TTTTTTTCTT", "system": "ATP", "switch fluorescence ratio": 0.994}
{"sequence_code": "GGAAAACTGG", "system": "ATP", "switch fluorescence ratio": 1.01}
{"sequence_code": "GTTGAATCAT", "system": "ATP", "switch fluorescence ratio": 0.992}
{"sequence_code": "ACCGGGAGAT", "system": "ATP", "switch fluorescence ratio": 0.994}
{"sequence_code": "GTTTTGGGTT", "system": "ATP", "switch fluorescence ratio": 0.977}
{"sequence_code": "AACTTATGTC", "system": "ATP", "switch fluorescence ratio": 0.974}
{"sequence_code": "ATACCAGTG", "system": "ATP", "switch fluorescence ratio": 1.12}
{"sequence_code": "GCTGTAAATT", "system": "ATP", "switch fluorescence ratio": 0.982}
{"sequence_code": "CTTATAGCTT", "system": "ATP", "switch fluorescence ratio": 0.987}
{"sequence_code": "CTAGGATTAA", "system": "ATP", "switch fluorescence ratio": 0.985}
{"sequence_code": "ATAATTTATT", "system": "ATP", "switch fluorescence ratio": 0.996}
{"sequence_code": "TGTCTTAGGA", "system": "ATP", "switch fluorescence ratio": 0.999}
{"sequence_code": "AAGTTGGCGC", "system": "ATP", "switch fluorescence ratio": 1.01}
{"sequence_code": "TGAAGGAGGT", "system": "ATP", "switch fluorescence ratio": 1}
{"sequence_code": "GCAGTATGGG", "system": "ATP", "switch fluorescence ratio": 1}
{"sequence_code": "AAAATGAAAA", "system": "ATP", "switch fluorescence ratio": 0.987}
{"sequence_code": "ATACTCAACA", "system": "ATP", "switch fluorescence ratio": 1.25}
{"sequence_code": "GCCGGAAAAC", "system": "ATP", "switch fluorescence ratio": 2.35}
{"sequence_code": "TGCGATTGGT", "system": "ATP", "switch fluorescence ratio": 1.01}
{"sequence_code": "GGGATGGTGT", "system": "ATP", "switch fluorescence ratio": 0.962}
{"sequence_code": "TTCCGAAGGT", "system": "ATP", "switch fluorescence ratio": 1.03}
{"sequence_code": "GAATGGTCGC", "system": "ATP", "switch fluorescence ratio": 0.963}
{"sequence_code": "TAAAAAACCT", "system": "ATP", "switch fluorescence ratio": 1.57}
{"sequence_code": "AAGTTCGGGA", "system": "ATP", "switch fluorescence ratio": 1}
{"sequence_code": "GTTCAAGGGC", "system": "ATP", "switch fluorescence ratio": 0.996}
{"sequence_code": "AGATGAGGTG", "system": "ATP", "switch fluorescence ratio": 1.01}
{"sequence_code": "AAAGTTACGT", "system": "ATP", "switch fluorescence ratio": 1.01}
{"sequence_code": "AATGGATGCG", "system": "ATP", "switch fluorescence ratio": 1}
{"sequence_code": "GGTCTTTGAA", "system": "ATP", "switch fluorescence ratio": 0.979}
{"sequence_code": "TGATGGTTCA", "system": "ATP", "switch fluorescence ratio": 0.941}
{"sequence_code": "TAGGCTGATA", "system": "ATP", "switch fluorescence ratio": 1.01}
{"sequence_code": "CATATTTGCC", "system": "ATP", "switch fluorescence ratio": 1.03}
{"sequence_code": "TTTGCTTATG", "system": "ATP", "switch fluorescence ratio": 0.992}
{"sequence_code": "CGAAAGATGA", "system": "ATP", "switch fluorescence ratio": 0.982}
{"sequence_code": "GGTGTTTTAT", "system": "ATP", "switch fluorescence ratio": 1.02}
{"sequence_code": "CGTTGATTTG", "system": "ATP", "switch fluorescence ratio": 0.991}
{"sequence_code": "CTGCTTGGGA", "system": "ATP", "switch fluorescence ratio": 1.01}

Entry source: the supplement of paper PMC10126150
